# target desc: rhGCPII (Homo sapiens)
# Sequence (Q04609 whole entry): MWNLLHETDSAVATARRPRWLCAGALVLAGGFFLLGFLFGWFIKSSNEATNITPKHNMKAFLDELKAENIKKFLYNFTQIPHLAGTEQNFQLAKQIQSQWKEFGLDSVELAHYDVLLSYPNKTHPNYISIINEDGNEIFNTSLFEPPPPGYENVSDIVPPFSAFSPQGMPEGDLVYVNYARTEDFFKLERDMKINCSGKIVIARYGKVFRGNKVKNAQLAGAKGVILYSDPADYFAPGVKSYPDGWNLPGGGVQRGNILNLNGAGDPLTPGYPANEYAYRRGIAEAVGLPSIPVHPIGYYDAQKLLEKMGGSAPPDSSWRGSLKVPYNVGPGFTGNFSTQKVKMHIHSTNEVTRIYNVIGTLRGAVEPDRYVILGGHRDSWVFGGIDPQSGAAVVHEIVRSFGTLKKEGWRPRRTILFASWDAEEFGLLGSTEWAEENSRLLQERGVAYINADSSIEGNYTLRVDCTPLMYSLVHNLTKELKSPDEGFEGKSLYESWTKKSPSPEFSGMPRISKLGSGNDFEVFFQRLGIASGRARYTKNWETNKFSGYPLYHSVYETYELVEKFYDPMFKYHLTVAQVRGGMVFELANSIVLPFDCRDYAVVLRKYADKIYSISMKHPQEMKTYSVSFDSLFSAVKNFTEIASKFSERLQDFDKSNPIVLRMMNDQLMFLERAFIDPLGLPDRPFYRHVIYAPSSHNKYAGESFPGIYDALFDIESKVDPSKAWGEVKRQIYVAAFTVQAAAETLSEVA
measured attribute: IC50 (nM)
One number for each entry, in nM.

Exercise: Give me measured IC50, please, for this compound: O=C(CCC(Cc1ccc(C(=O)O)cc1)C(=O)O)NO (stereo not shown) [Compound 1]
Solution: 44

// data source = patent US11866394B2
